Target: HLA A*3001 (Homo sapiens, UniProt P04439, D140H/D185E/E176W/F33S/G80R/H175R/K168Q/R138E/R41S)
Experiment: biochemical
Where a SMILES comes first, the peptide text is derived from it.
Quantity name: pIC50
// returns pIC50 (minus log10 of molar concentration), number only

QUERY: Entry CC(C)C[C@H](NC(=O)[C@@H](NC(=O)[C@H](CO)NC(=O)[C@H](CCCCN)NC(=O)[C@@H](NC(=O)[C@@H](N)Cc1c[nH]cn1)C(C)C)[C@@H](C)O)C(=O)N[C@@H](CC(N)=O)C(=O)N[C@@H](CC(N)=O)C(=O)N[C@@H](C)C(=O)O [3102.0217] (H-HVKSTLNNA-OH) has what pIC50?
RESULT: 8.92

QUERY: Next up: CC[C@H](C)[C@H](NC(=O)[C@H](CCCCN)NC(=O)[C@@H](NC(=O)CN)[C@@H](C)O)C(=O)N[C@@H](C)C(=O)N[C@@H](CC(C)C)C(=O)N[C@@H](CC(C)C)C(=O)N[C@@H](CCC(=O)O)C(=O)N[C@@H](CC(C)C)C(=O)O [3102.0200] (H-GTKIALLEL-OH)
RESULT: 8.89

QUERY: Also check CC[C@H](C)[C@H](NC(=O)[C@H](CCCCN)NC(=O)[C@H](Cc1c[nH]cn1)NC(=O)[C@@H](N)CCCCN)C(=O)N[C@@H](Cc1ccccc1)C(=O)N[C@@H](CO)C(=O)N1CCC[C@H]1C(=O)N[C@@H](Cc1ccccc1)C(=O)N[C@@H](CCCCN)C(=O)O [3102.0267] (H-KHKIFSPFK-OH)
RESULT: 9.05

QUERY: And CC[C@H](C)[C@H](NC(=O)[C@H](CCCNC(=N)N)NC(=O)[C@@H]1CCCN1C(=O)[C@H](CO)NC(=O)[C@H](C)NC(=O)[C@H](CCCNC(=N)N)NC(=O)[C@H](CO)NC(=O)[C@@H](N)Cc1c[nH]cn1)C(=O)NCC(=O)O [3102.0216] (H-HSRASPRIG-OH) ?
RESULT: 9.03
